From: paper PMC11852578

SYSTEM UNDER TEST: the molecule itself
PROTOCOL TEXT: fluorescence correlation spectroscopy (molecular brightness); SEC-purified, AF647-labelled protein in Glyco-DIBMA nanodiscs; brightness compared with free AF647 maleimide dye at the same laser power, assuming labelling of all monomers
QUANTITY KIND: stoichiometry N

PROTEIN | RECORDED MEASUREMENT
HpUreI L134C single-cysteine mutant labelled with AF647 maleimide, in Glyco-DIBMA native nanodiscs (natural protein, Alexa Fluor 647 maleimide on the introduced cysteine L134C, urea channel HpUreI, Helicobacter pylori; Same construct as m7, but labelled and in a nanodisc; no removal of the His tag is told for the nanodisc preparation; also called nanodisc-embedded HpUreI; source: E. coli C43, membranes extracted with Glyco-DIBMA, purified (Ni-NTA with on-column labelling, SEC)) MLGLVLLYVGIVLISNGICGLTKVDPKSTAVMNFFVGGLSIICNIVVITYSALHPTAPVEGAEDIAQVSHHLTSFYGPATGLLFGFTYLYAAINHTFGLDWRPYSWYSLFVAINTIPAAILSHYSDMLDDHKVCGITEGDWWAIIWLAWGVLWLTAFIENILKIPLGKFTPWLAIIEGILTAWIPAWLLFIQHWV | ~6
KvAP E275C single-cysteine mutant labelled with AF647 maleimide, in Glyco-DIBMA native nanodiscs (natural protein, Aeropyrum pernix, Alexa Fluor 647 maleimide on the introduced cysteine E275C, voltage-gated potassium channel KvAP, Aeropyrum pernix; native cysteine mutated to alanine and cysteine introduced at E275; Same construct as m4, but labelled and in a nanodisc; also called mutant E275C; source: E. coli C43, membranes extracted with Glyco-DIBMA, purified (Ni-NTA with on-column labelling, SEC)) GGRVRNIGDVMEHPLVELGVSYAALLSVIVVVVEYTMQLSGEYLVRLYLVDLILVIILWADYAYRAYKSGDPAGYVKKTLYEIPALVPAGLLALIEGHLAGLGLFRLVRLLRFLRILLIISRGSKFLSAIADAADKIRFYHLFGAVMLTVLYGAFAIYIVEYPDPNSSIKSVFDALWWAVVTATTVGYGDVVPATPIGKVIGIAVMLTGISALTLLIGTVSNMFQKILVGEPEPSASPAKLAEMVSSMSECEFEEFVRTLKNLRRLENSMK | ~4
KvAP wild type labelled with AF647 maleimide, in Glyco-DIBMA native nanodiscs (natural protein, Aeropyrum pernix, Alexa Fluor 647 maleimide on the native cysteine C260, voltage-gated potassium channel KvAP, Aeropyrum pernix; native cysteine printed as C260; Same construct as m1, but labelled and in a polymer-encapsulated lipid nanodisc; also called wild-type KvAP; nanodisc-purified wild-type KvAP; source: E. coli C43, membranes extracted with Glyco-DIBMA, purified (Ni-NTA with on-column labelling, SEC)) GGRVRNIGDVMEHPLVELGVSYAALLSVIVVVVEYTMQLSGEYLVRLYLVDLILVIILWADYAYRAYKSGDPAGYVKKTLYEIPALVPAGLLALIEGHLAGLGLFRLVRLLRFLRILLIISRGSKFLSAIADAADKIRFYHLFGAVMLTVLYGAFAIYIVEYPDPNSSIKSVFDALWWAVVTATTVGYGDVVPATPIGKVIGIAVMLTGISALTLLIGTVSNMFQKILVGEPEPSCSPAKLAEMVSSMSEEEFEEFVRTLKNLRRLENSMK | ~4
KvAP K102C single-cysteine mutant labelled with AF647 maleimide, in Glyco-DIBMA native nanodiscs (natural protein, Aeropyrum pernix, Alexa Fluor 647 maleimide on the introduced cysteine K102C, voltage-gated potassium channel KvAP, Aeropyrum pernix; native cysteine mutated to alanine and cysteine introduced at K102; Same construct as m3, but labelled and in a nanodisc; also called mutant K102C; source: E. coli C43, membranes extracted with Glyco-DIBMA, purified (Ni-NTA with on-column labelling, SEC)) GGRVRNIGDVMEHPLVELGVSYAALLSVIVVVVEYTMQLSGEYLVRLYLVDLILVIILWADYAYRAYKSGDPAGYVKCTLYEIPALVPAGLLALIEGHLAGLGLFRLVRLLRFLRILLIISRGSKFLSAIADAADKIRFYHLFGAVMLTVLYGAFAIYIVEYPDPNSSIKSVFDALWWAVVTATTVGYGDVVPATPIGKVIGIAVMLTGISALTLLIGTVSNMFQKILVGEPEPSASPAKLAEMVSSMSEEEFEEFVRTLKNLRRLENSMK | ~4
